- assay-overview: inhibitors of hepatocyte lipid droplet formation, primary screen, imaging, high-throughput imaging, BODIPY stain (AID 1656)
- condition-info: AML12 mouse hepatocytes, oleate lipid droplets, at 6.5 µM; stronger effect = higher value
Among all 240,000 compounds or so, about 950 (0.4%) were called active. The full list was thinned out, with actives kept by preference.
readout-label: inhibition (%)
Write down the numeric answer in % and omit the unit.

CCN(CCCNC(=O)CSc1cc(=O)n(C)c2cc(Cl)ccc12)Cc1ccccc1    18.8

Q: GET /values?readout=inhibition&item= CC(NC(=O)c1cccc2ccccc12)c1ccc2c(c1)CCCC2 (stereo not given)
Result: 57.9

Q: GET /values?readout=inhibition&item= COc1cccc(Cn2cc(/C=N/NC(=O)c3cc(O)cc(O)c3)c3ccccc32)c1
Result: -2.5

Q: GET /values?readout=inhibition&item= CC(C)=CCCC(C)CN1CCC(n2nccc2NC(=O)c2ccccc2)CC1 (stereo not given)
Result: 2.9

Q: GET /values?readout=inhibition&item= Cn1c(=O)cc(SCC(=O)N2CCCC2)c2cc(Cl)ccc21
Result: 9

Q: GET /values?readout=inhibition&item= COCn1c(C(O)c2ccccc2)cc2ccccc21 (stereo not given)
Result: -9.2

----------
- assay-overview: inhibitors of hepatocyte lipid droplet formation, primary screen, imaging, high-throughput imaging, BODIPY stain (AID 1656);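 for cell count: cells counted across two imaged fields per well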
- condition-info: AML12 mouse hepatocytes, oleate lipid droplets, at 6.5 µM; measured here: cell count, cytotoxicity flag
Out of some 240,000 compounds screened, about 950 (0.4%) were called active. The sample holds actives, similar compounds and a random draw of the others, so the mix is not that of the screen.
Outcome: T for cell count of at least 700 cells; F for anything lower.

Answered cases to consult:
CCC(C)(C)NC(=O)C(c1ccc(OC)cc1)N(C(=O)CCC(=O)Nc1cc(C)on1)c1ccc(OC)cc1OC (configuration not stated)    T
CCOc1ccc(CCNC(=O)CSc2cc(=O)n(C)c3ccc(Cl)cc23)cc1OCC    F
O=C(c1ccccc1)N1N=C(c2ccccc2O)CC1c1ccc(Br)cc1 (configuration not stated)    T
O=S(=O)(c1ccc(Cl)cc1)c1nc(-c2ccco2)oc1N1CCCCC1    F

Pending compound:
Q: Does CCn1c(=S)sc2c(=O)n(CC(=O)Nc3cccc(Br)c3)c(C)nc21 have a reported cell count of at least 700 cells?
Result: T

----------
- assay-overview: inhibitors of hepatocyte lipid droplet formation, primary screen, imaging, high-throughput imaging, BODIPY stain (AID 1656);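 for cell count: cells counted across two imaged fields per well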
- condition-info: AML12 mouse hepatocytes, oleate lipid droplets, at 6.5 µM; measured here: cell count, cytotoxicity flag
Among all 240,000 compounds or so, about 950 (0.4%) were called active. Only a selection was taken, and actives are over-represented in it overall.
Measured cell count accompanies every entry in the list below.
Write down the numeric answer in cells and omit the unit.

Example results:
CCn1cc(CN2CCN(CC(C)(C)C)C(CCO)C2)c2ccccc21 (stereo not given)    814
CCc1ccc(C(CNc2nc(C(F)(F)F)nc3ccccc23)N(C)C)cc1 (stereo not given)    654
Cc1nc(SCC(=O)Nc2cc(C)on2)c2c3c(sc2n1)CCCC3    678
Cc1c(C(=O)N(Cc2ccccc2)Cc2cccnc2)cnn1-c1ccc(F)cc1    648

Q: GET /values?readout=cell count&item= Cc1ccc(NC(=O)O/N=C/c2cccc([N+](=O)[O-])c2)cc1
Result: 427

Q: GET /values?readout=cell count&item= CCCc1cc(=O)oc2cc(OCC(=O)Nc3ccc(CN4CCOCC4)cc3)c(Cl)cc12
Result: 636

Q: GET /values?readout=cell count&item= Cc1cc(NC(=O)CSc2nc(C(C)C)nc3sc4c(c23)CCC(C)C4)no1 (stereo not given)
Result: 668

Q: GET /values?readout=cell count&item= COc1cc(/C=N/NC(=O)c2cccnc2)ccc1OC(=O)c1cccc(Br)c1
Result: 669

Q: GET /values?readout=cell count&item= O=C(c1ccccc1)N1CCC(CC2CC(c3ccc(Cl)cc3)=NO2)(C(=O)NCC2CCCCC2)CC1 (stereo not given)
Result: 817

Q: GET /values?readout=cell count&item= CCC(CC)NC(=O)/C=C/c1cccc([N+](=O)[O-])c1
Result: 628

Cited source: PubChem BioAssay AID1656
